Target: T1, human CTGF protein (R&D, Cat No. 9190-CC) (human, UniProt P29279 27-349)
T1 construct: Bought protein; also called CTGF recombinant protein; CTGF (R&D)
T1 sequence: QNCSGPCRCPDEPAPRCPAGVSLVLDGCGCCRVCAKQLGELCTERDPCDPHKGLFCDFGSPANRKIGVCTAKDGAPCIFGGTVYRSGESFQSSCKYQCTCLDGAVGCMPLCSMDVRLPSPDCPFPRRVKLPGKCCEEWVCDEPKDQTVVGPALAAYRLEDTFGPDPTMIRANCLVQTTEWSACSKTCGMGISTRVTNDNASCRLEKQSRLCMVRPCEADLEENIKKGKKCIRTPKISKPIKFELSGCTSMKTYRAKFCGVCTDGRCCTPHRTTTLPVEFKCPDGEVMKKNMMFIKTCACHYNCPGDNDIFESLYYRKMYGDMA
Test: ELISA, plate coated with CTGF (R&D 9190-CC)
recorded.endpoint: EC50 (nM)
Give the number; nM is assumed, so skip it.

Ask | Return value of EC50 for input Hu164-69wl (antibody, human IgG1, lambda, V domains shown) VH: EVTLKESGPVLVKPTETLTLTCTVSGFSLSTFGVHWIRQPPGKGLEWLGVIWRRGGTDYNAAFMSRLTISKDTSKSQVVFTMTNMDPVDTATYYCARDGGFDYWGQGTTVTVSS VL: ESVVTQPPSVSGAPGQRVTISCRSSIGAVTTSNYANWVQQLPGTAFKGLIGGTSNRAPGVPDRFSGSKSGTSASLAITGLQAEDEADYYCALWYSTHYVFGGGTKLTVLG , no commentary.
Reply | 0.063

Ask | Give EC50 for Hu147-22wk (antibody, human IgG1, kappa, V domains shown) VH: EVQLVESGGGLVQPGGSLRLSCAASGFTFNTYAMNWVRQAPGKGLEWVARIRTKSNNYATYYADSVKDRFTISRDDSKNSLYLQMNSLKTEDTAVYYCVETGFAYWDQGTLVTVSS VL: EIVLTQSPATLSLSPGERATLSCSASSSVSYMHWFQQKPGQSPKLLIYSTSNLASGIPARFSGSGSGTDYTLTISSLEPEDFAVYYCQQRSSYPLTFGQGTKLEIKR
Reply | 0.056

Further cases:
Ask | # return recorded EC50 for input Hu147-21wk (antibody, human IgG1, kappa, V domains shown) VH: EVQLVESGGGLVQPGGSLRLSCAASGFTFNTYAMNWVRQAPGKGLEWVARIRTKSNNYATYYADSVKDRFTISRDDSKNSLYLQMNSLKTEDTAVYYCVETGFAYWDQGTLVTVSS VL: EIVLTQSPATLSLSPGERATLSCSASSSVSYMHWFQQKPGQSPRLLIYSTSNLASGIPARFSGSGSGTDYTLTISSLEPEDFAVYYCQQRSSYPLTFGQGTKLEIKR
Reply | 0.067

Every entry's value here was drawn from patent US20220324953A1.
